# target_or_test_system: UniProt P11166
# Sequence (P11166 whole entry, species assumed): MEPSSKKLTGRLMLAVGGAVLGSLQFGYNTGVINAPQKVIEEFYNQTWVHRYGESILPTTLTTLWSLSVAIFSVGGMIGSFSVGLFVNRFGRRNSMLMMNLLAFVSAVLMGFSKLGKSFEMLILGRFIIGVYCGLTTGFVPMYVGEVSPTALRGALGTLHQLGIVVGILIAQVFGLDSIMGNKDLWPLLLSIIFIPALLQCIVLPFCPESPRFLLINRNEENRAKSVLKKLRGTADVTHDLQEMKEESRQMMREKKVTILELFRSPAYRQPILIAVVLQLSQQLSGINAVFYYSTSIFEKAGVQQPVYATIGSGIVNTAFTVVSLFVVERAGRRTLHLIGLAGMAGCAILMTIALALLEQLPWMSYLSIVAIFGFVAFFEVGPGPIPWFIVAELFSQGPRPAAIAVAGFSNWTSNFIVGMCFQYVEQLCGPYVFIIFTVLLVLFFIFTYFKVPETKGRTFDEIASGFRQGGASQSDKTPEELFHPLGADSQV
# test_details: Indirect measurement of GLUT1 activity by quantification of intracellular ATP levels (glucose induced ATP increase)
# Format: cell-based
# Set-up: endogenous in cells; host or cells: DLD1 or CHO-K1
# measurement_context: read-out: IC50 regarding glucose induced ATP increase (GLUT1 inhibition)
measure: pIC50
One number for each entry, as −log10 of the molar value.

Previously resolved entries follow.
1) Cc1cccc(Cn2nc(C(F)(F)F)c(NC(=O)c3cc(C(N)=O)nc4cc(F)ccc34)c2C)c1 : 7.98
2) COc1ccccc1Cn1nc(C)c(NC(=O)c2cc(C)nc3ccc(C)cc23)c1C : 5.98
3) Cc1nn(Cc2ccc(C(=O)N3CCC(O)C3)cc2)c(C)c1NC(=O)c1cc(C(F)(F)F)nc2ccc(Br)cc12 (racemic) : 6.79
4) CCc1nn(Cc2ccc(C#N)cc2)c(CC)c1NC(=O)c1cc(C(N)=O)nc2cc(F)c(Cl)cc12 : 8.22
5) CNC(=O)Cc1ccc(Cn2nc(C)c(NC(=O)c3cc(C(F)(F)F)nc4ccc(Br)cc34)c2C)cc1 : 7.02

Required: pIC50, one value per molecule below.
1. COc1cc(C(=O)Nc2c(C)nn(Cc3ccccc3F)c2C)c2ccccc2n1
2. Cc1ccc2nc(C)cc(C(=O)Nc3c(C(F)(F)F)nn(Cc4ccc(F)cc4)c3C)c2c1
3. Cc1nn(Cc2ccccc2C#N)c(C)c1NC(=O)c1cc(C(N)=O)nc2cc(F)c(Cl)cc12

// result
[6.69, 6.75, 8.80]
